Measured relative importance of variable (model averaging), Marking of individual entries
test system: wild, free-ranging rats; assay: Model selection / model averaging of blend-trial response variables (Visitation, Contact, Marking, Intensity); assay type: in vivo; conditions: response variable Marking (urination and/or faecal marking)
REPORTED_METRIC: relative importance of variable (model averaging), Marking

- MOLECULE: "CCCCCCO"
  MEASURED_RESULT: 0.95
- MOLECULE: "CCC(C)COC(C)=O (centres unmarked) [I, 2-methylbutyl acetate]"
  MEASURED_RESULT: 0.95
- MOLECULE: "CC(=O)OCC(C)C [F, isobutyl acetate]"
  MEASURED_RESULT: 0.987
- MOLECULE: "CC(C)CCO"
  MEASURED_RESULT: 0.95
- MOLECULE: "CC(=O)C(C)O (centres unmarked)"
  MEASURED_RESULT: 0.96

====

System: wild, free-ranging rats
Assay: Model selection / model averaging of blend-trial response variables (Visitation, Contact, Marking, Intensity)
Type: in vivo
Details: response variable Visitation (tracking); presence/absence of compound in lure as predictor
Experimental: Trials were designed to compare the performance of each lure relative to the best performing lure after each successive trial phase. […] Lures were scored using the presence/absence of rat tracks on inked tracking cards to provide a proportion of tracking cards receiving species-specific visitations and hereafter termed the ‘tracking rate’. […] This was measured using a 10 cm×47 cm Perspex sheet with a grid made up of 1 cm^2 squares. […]
Measured relative importance of variable (model averaging), Visitation of individual entries
REPORTED_METRIC: relative importance of variable (model averaging), Visitation

- MOLECULE: "CCCCCCO [B, 1-hexanol]"
  MEASURED_RESULT: 0.90
- MOLECULE: "CC(=O)C(C)O (centres unmarked) [C, acetoin]"
  MEASURED_RESULT: 0.58
- MOLECULE: "CCC(C)COC(C)=O (centres unmarked) [I, 2-methylbutyl acetate]"
  MEASURED_RESULT: 0.84
- MOLECULE: "CC(C)CCO [A, isoamyl alcohol]"
  MEASURED_RESULT: 0.69
- MOLECULE: "CC(=O)OCC(C)C [F, isobutyl acetate]"
  MEASURED_RESULT: 0.70

====

Measured relative importance of variable (model averaging), Contact of individual entries
system: wild, free-ranging rats; test: Model selection / model averaging of blend-trial response variables (Visitation, Contact, Marking, Intensity); format: in vivo; conditions: response variable Contact (chew or bite marks)
REPORTED_METRIC: relative importance of variable (model averaging), Contact

- COMPOUND: "CCCCCCO [B, 1-hexanol]"
  MEASURED_RESULT: 0.50
- COMPOUND: "CC(C)CCO [A, isoamyl alcohol]"
  MEASURED_RESULT: 0.68
- COMPOUND: "CCC(C)COC(C)=O (centres unmarked) [I, 2-methylbutyl acetate]"
  MEASURED_RESULT: 0.48
- COMPOUND: "CC(=O)C(C)O (centres unmarked) [C, acetoin]"
  MEASURED_RESULT: 0.50
- COMPOUND: "CC(=O)OCC(C)C [F, isobutyl acetate]"
  MEASURED_RESULT: 0.78
